target-system: MC4-R (Homo sapiens, UniProt P32245)
Sequence (P32245 whole entry): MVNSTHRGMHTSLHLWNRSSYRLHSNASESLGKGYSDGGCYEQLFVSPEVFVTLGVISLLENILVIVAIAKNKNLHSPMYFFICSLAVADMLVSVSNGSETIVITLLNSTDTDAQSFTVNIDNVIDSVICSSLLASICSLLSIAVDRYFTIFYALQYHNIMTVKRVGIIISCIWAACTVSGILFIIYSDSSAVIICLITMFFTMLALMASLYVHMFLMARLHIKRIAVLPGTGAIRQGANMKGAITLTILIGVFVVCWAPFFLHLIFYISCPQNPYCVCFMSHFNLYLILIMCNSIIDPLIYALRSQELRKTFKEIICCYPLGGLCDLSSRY
assay-summary: cAMP agonist stimulation, high receptor density system (10 ng/mL doxycycline)
Non-standard residues stand in square brackets, D forms with d. Residues, ends and D or L forms follow the SMILES beside them. *: point of attachment. dPhe(4-Cl) = N[C@H](Cc1ccc(Cl)cc1)C(=O)O; Ahp = NCCCCCCC(=O)O; Bn = c1ccc(C*)cc1
Here the recorded EC50 is given for each entry.
Numeric only. Scale: nM

Ask: Name the recorded EC50 for C[C@H](NC(=O)[C@H](CCCNC(=N)N)NC(=O)[C@@H](Cc1ccc(Cl)cc1)NC(=O)[C@H](COCc1ccccc1)NC(=O)CCCCCCN)c1cccc2ccccc12 .
Result: 180

***
Ask: Name the recorded EC50 for Cc1ccc(CCN2C[C@H](CCCNC(=N)N)N(C(=O)[C@H](N)Cc3ccc4ccccc4c3)C[C@H]2C)cc1 .
Result: 117

Ask: Name the recorded EC50 for N=C(N)NCCC[C@H](NC(=O)[C@@H](Cc1ccc(Cl)cc1)NC(=O)[C@H](COCc1ccccc1)NC(=O)CCCCCCN)C(=O)N[C@@H](Cc1c[nH]c2ccccc12)C(=O)N[C@@H](CC(=O)O)C(=O)N[C@@H](Cc1ccccc1)C(N)=O [Example 14] (H-[Ahp]S(Bn)[dPhe(4-Cl)]RWDF-NH2) .
Result: 141

Ask: Name the recorded EC50 for C[C@H](NC(=O)[C@H](Cc1c[nH]c2ccccc12)NC(=O)[C@H](CCCNC(=N)N)NC(=O)[C@@H](Cc1ccc(Cl)cc1)NC(=O)[C@H](COCc1ccccc1)NC(=O)CCCCCCN)C(N)=O [Example 15] (H-[Ahp]S(Bn)[dPhe(4-Cl)]RWA-NH2) .
Result: 55

Ask: Name the recorded EC50 for Cc1cc(Cl)ccc1C[C@@H](N)C(=O)N1C[C@@H](C)N(C(=O)Cc2ccc3ccccc3c2)C[C@@H]1CCCNC(=N)N .
Result: 26

Ask: Name the recorded EC50 for NCCCC[C@H]1C(=O)N(CCc2ccc3ccccc3c2)CCN1C(=O)[C@@H](Cc1ccc(Cl)cc1Cl)NC(=O)[C@@H]1CC[C@H](c2ccccc2)N1 .
Result: 281

Ask: Name the recorded EC50 for N=C(N)NCCC[C@H]1C(=O)N(CCc2c[nH]c3ccccc23)CCN1C(=O)[C@H](N)Cc1ccc(Cl)cc1Cl .
Result: 57

Ask: Name the recorded EC50 for Cc1cc(Cl)ccc1C[C@@H](N)C(=O)N1C[C@@H](C)N(CCc2c[nH]c3ccccc23)C[C@@H]1CCCNC(=N)N .
Result: 22

Ask: Name the recorded EC50 for CC(=O)N[C@H](Cc1ccc(C)cc1C)C(=O)N1C[C@@H](C)N(C(=O)Cc2ccc3ccccc3c2)C[C@@H]1CCCNC(=N)N .
Result: 51

Ask: Name the recorded EC50 for C[C@@H]1CN(C(=O)[C@H](N)Cc2ccc(Cl)cc2)[C@@H](CCCNC(=N)N)CN1CCc1ccc2ccccc2c1 .
Result: 24

Ask: Name the recorded EC50 for N=C(N)NCCC[C@H](NC(=O)[C@@H](Cc1ccc(Cl)cc1)NC(=O)[C@H](COCc1ccccc1)NC(=O)CCCCCCN)C(=O)N[C@@H](Cc1c[nH]c2ccccc12)C(N)=O [Example 1] (H-[Ahp]S(Bn)[dPhe(4-Cl)]RW-NH2) .
Result: 21

This collection of values is drawn from patent US20090081197A1.
